// provenance: ChEMBL document CHEMBL4725299

# TEST: Half life of the compound in 25% human serum
# Format: ADME, cell-free
Non-standard residues stand in square brackets, D forms with d. Residues, ends and D or L forms follow the SMILES beside them. *: point of attachment. Propanoyl(3-(3-pyridyl)) = O=C(CCc1cccnc1)*; 2Nal = N[C@@H](Cc1ccc2ccccc2c1)C(=O)O
PARAMETER MEASURED: half-life

# COMPOUND, PARAMETER MEASURED, MEAS VALUE
data = [
    ("N=C(N)NCCC[C@H](NC(=O)[C@@H]1CCCN1C(=O)[C@H](CCCNC(=N)N)NC(=O)[C@H](Cc1ccccc1)NC(=O)[C@H](Cc1ccc2ccccc2c1)NC(=O)CCc1cccnc1)C(=O)N[C@@H](CC(N)=O)C(N)=O ({Propanoyl(3-(3-pyridyl))}-[2Nal]FRPRN-NH2)", "half-life", "20 min"),
]

###

# TEST: Stability of the compound in 25% human serum assessed as intact residual rate at 50 uM incubated for 180 mins at 37 degreeC
# Format: ADME, cell-free
# CONDITION DESCRIPTION: read-out: Stabilty
Non-standard residues stand in square brackets, D forms with d. Residues, ends and D or L forms follow the SMILES beside them. *: point of attachment. Propanoyl(3-(3-pyridyl)) = O=C(CCc1cccnc1)*; Bip = N[C@@H](Cc1ccc(-c2ccccc2)cc1)C(=O)O; αMeW = C[C@](N)(Cc1c[nH]c2ccccc12)C(=O)O; 2Nal = N[C@@H](Cc1ccc2ccccc2c1)C(=O)O; Acetyl(2-thienyl) = O=C(Cc1cccs1)*
Catalogue of remaining at 3 h, 50 µM readings, one per entry.

# MOLECULE, remaining at 3 h, 50 µM, %
data = [
    ("N=C(N)NCCC[C@H](NC(=O)[C@@H]1CCCN1C(=O)[C@H](CCCNC(=N)N)NC(=O)[C@H](Cc1ccc(-c2ccccc2)cc1)NC(=O)[C@H](Cc1ccc2ccccc2c1)NC(=O)CCc1cccnc1)C(=O)N[C@@H](CC(N)=O)C(N)=O ({Propanoyl(3-(3-pyridyl))}-[2Nal][Bip]RPRN-NH2)", 84),
    ("N=C(N)NCCC[C@H](NC(=O)[C@@H]1CCCN1C(=O)[C@H](CCCNC(=N)N)NC(=O)[C@H](Cc1ccc(-c2ccccc2)cc1)NC(=O)[C@H](Cc1c[nH]c2ccccc12)NC(=O)Cc1cccs1)C(=O)N[C@@H](CC(N)=O)C(N)=O ({Acetyl(2-thienyl)}-W[Bip]RPRN-NH2)", 35),
    ("C[C@@](Cc1c[nH]c2ccccc12)(NC(=O)[C@H](Cc1c[nH]c2ccccc12)NC(=O)Cc1cccs1)C(=O)N[C@@H](CCCNC(=N)N)C(=O)N1CCC[C@H]1C(=O)N[C@@H](CCCNC(=N)N)C(=O)N[C@@H](CC(N)=O)C(N)=O ({Acetyl(2-thienyl)}-W[αMeW]RPRN-NH2)", 39),
]

###

# TEST: Stability of the compound in 25% human serum assessed as residual rate at 50 uM incubated for 10 mins at 37 degreeC
# Type: ADME, cell-free
# CONDITION DESCRIPTION: read-out: Stabilty
Starred links: 1 amine or outer side, 2 acyl side, 3 side chain; linkers in the order of their positions; H or OH if unused. Non-standard residues stand in square brackets, D forms with d. Residues, ends and D or L forms follow the SMILES beside them. *: point of attachment. X1 = O=C([C@H](Cc1ccc(Cc2ccccc2)cc1)N[*:1])[*:2]; Acetyl(2-naphthyloxy) = O=C(COc1ccc2ccccc2c1)*; Propanoyl(3-(3-pyridyl)) = O=C(CCc1cccnc1)*; Bip = N[C@@H](Cc1ccc(-c2ccccc2)cc1)C(=O)O; 2Nal = N[C@@H](Cc1ccc2ccccc2c1)C(=O)O; Acetyl(2-thienyl) = O=C(Cc1cccs1)*; Tic = O=C(O)[C@@H]1Cc2ccccc2CN1
Catalogue of remaining at 10 min, 50 µM readings, one per entry.

# COMPOUND, remaining at 10 min, 50 µM [%]
measured = [
    ("N=C(N)NCCC[C@H](NC(=O)[C@@H]1CCCN1C(=O)[C@H](CCCNC(=N)N)NC(=O)[C@H](Cc1ccc(-c2ccccc2)cc1)NC(=O)[C@H](Cc1c[nH]c2ccccc12)NC(=O)Cc1cccs1)C(=O)N[C@@H](CC(N)=O)C(N)=O ({Acetyl(2-thienyl)}-W[Bip]RPRN-NH2)", 95),
    ("COc1ccc(C[C@H](NC(=O)[C@H](Cc2c[nH]c3ccccc23)NC(=O)Cc2cccs2)C(=O)N[C@@H](CCCNC(=N)N)C(=O)N2CCC[C@H]2C(=O)N[C@@H](CCCNC(=N)N)C(=O)N[C@@H](CC(N)=O)C(N)=O)cc1 ({Acetyl(2-thienyl)}-WY(Me)RPRN-NH2)", 48),
    ("N=C(N)NCCC[C@H](NC(=O)[C@@H]1CCCN1C(=O)[C@H](CCCNC(=N)N)NC(=O)[C@@H]1Cc2ccccc2CN1C(=O)COc1ccc2ccccc2c1)C(=O)N[C@@H](CC(N)=O)C(N)=O ({Acetyl(2-naphthyloxy)}-[Tic]RPRN-NH2)", 64),
    ("N=C(N)NCCC[C@H](NC(=O)[C@@H]1CCCN1C(=O)[C@H](CCCNC(=N)N)NC(=O)[C@H](Cc1ccccc1)NC(=O)[C@H](Cc1ccc2ccccc2c1)NC(=O)CCc1cccnc1)C(=O)N[C@@H](CC(N)=O)C(N)=O ({Propanoyl(3-(3-pyridyl))}-[2Nal]FRPRN-NH2)", 35),
    ("N=C(N)NCCC[C@H](NC(=O)[C@@H]1CCCN1C(=O)[C@H](CCCNC(=N)N)NC(=O)[C@H](Cc1ccc(Cc2ccccc2)cc1)NC(=O)[C@H](Cc1c[nH]c2ccccc12)NC(=O)Cc1cccs1)C(=O)N[C@@H](CC(N)=O)C(N)=O ({Acetyl(2-thienyl)}-W[X1]RPRN-NH2)", 95),
]
